assayed-target: Cytochrome P450 2C9 (Homo sapiens)
experiment-notes: Cytochrome panel assay with activity outcomes
measurement-parameters: recombinant CYP, pro-luciferin dealkylation, luminescence, p450-cyp2c9; series mostly up to 57.1 µM
Description: The P450 gene superfamily is involved in the metabolism and clearance of xenobiotics. This assay used various human CYP P450 isozymes to measure the dealkylation of various pro-luciferin substrates to luciferin. The luciferin is then measured by luminescence after the addition of a luciferase detection reagent. […] Inhibitors and some substrates limit the production of luciferin, and decrease measured luminescence. […] 8, Detection, 1 sec, ViewLux luminescent read […]
The whole screen tested about 16,000 compounds, of which about 4,000 (25%) were called active. Not shown: some 26% with an inconclusive outcome. Only a sample is shown.
quantity: AC50

// solved cases for AC50 follow
CCOc1cccc(NC(=O)CSc2nc(C)c3c(c2C#N)CCCC3)c1 : inactive
O=S(=O)(NCCNC/C=C\c1ccc(Br)cc1)c1cccc2cnccc12 : inactive
CCOC(=O)c1sc(NC(=O)CSc2n[nH]c(-c3ccc(Cl)cc3Cl)n2)c(C#N)c1C : 1260 nM (active)
CN1CCN(c2ccc([N+](=O)[O-])cc2C(=O)N2CCOCC2)CC1 : inactive

From here, focus on the item given below.
Quick one: give measured AC50 for O=C(c1ccc(Br)cc1)c1cc([N+](=O)[O-])ccc1N1CCCCC1
2510 nM (active)

###

assayed-target: Cytochrome P450 2C9 (Homo sapiens)
experiment-notes: Cytochrome panel assay with activity outcomes; as to activity, negative = inhibition: % is scaled to controls: 0 for no effect and ±100 for the full control effect
measurement-parameters: recombinant CYP, pro-luciferin dealkylation, luminescence, p450-cyp2c9; series mostly up to 57.1 µM
The campaign covered roughly 16,000 compounds. About 4,000 (25%) were called active. Another 26% or so got no clear call; they are omitted. A selection follows.
Entries and their activity, negative = inhibition

// solved cases for activity, negative = inhibition follow
COc1ccc(COC(=O)N/N=C2/C[C@@H](O)[C@@H](O)[C@@H]3[C@@H]4C(=O)N(C(C)(C)C)C(=O)[C@H]4CC[C@H]23)cc1 : 20.6% [at 11.4 µM] (inactive)
Cc1cc(Cl)nc(NC(=O)CSc2ccc(Cl)cc2)n1 : -1.09% [at 11.4 µM] (inactive)
CSCC[C@@H]1NC(=O)C/C=C\[C@@H](C)COC(=O)[C@H](C)COC1=O : -7.38% [at 11.4 µM] (inactive)
Clc1ccc(Cl)c(SCCCN2CCNCC2)c1 : -3.39% [at 11.4 µM] (inactive)

Quick one: give measured activity, negative = inhibition for CO[C@@H]1COC(=O)CC=C[C@@H](C)[C@@H]2C=C[C@H](O)[C@@H](COC(=O)C/C=C\[C@H]1C)O2
10.7% [at 11.4 µM] (inactive)

###

Entries and their activity, negative = inhibition
assayed-target: Cytochrome P450 2C9 (Homo sapiens)
experiment-notes: Cytochrome panel assay with activity outcomes; as to activity, negative = inhibition: % is scaled to controls: 0 for no effect and ±100 for the full control effect
measurement-parameters: recombinant CYP, pro-luciferin dealkylation, luminescence, p450-cyp2c9; series mostly up to 57.1 µM
In all, about 16,000 compounds went through this assay and about 4,000 (25%) were called active. Not shown: some 26% with an inconclusive outcome. Only a sample is shown.

CCCC1c2c(ccc3ccccc23)Oc2ccc3ccccc3c21 : -4.51% [at 11.4 µM] (inactive)

Quick one: give measured activity, negative = inhibition for COc1ccccc1-c1ccc2ncnc(N3CCOCC3)c2c1
-16.7% [at 2.29 µM] (inactive)

Quick one: give measured activity, negative = inhibition for N#Cc1c(NC(=O)CCC(=O)O)ccc2ccccc12
-7.5% [at 11.4 µM] (inactive)

Quick one: give measured activity, negative = inhibition for c1ccc(Nc2nc(-c3ccc4c(c3)OCO4)nc3ccccc23)cc1
-5.32% [at 2.29 µM] (inactive)

Quick one: give measured activity, negative = inhibition for Nc1cccc(OCc2nc(N)nc(N)c2-c2ccc(Cl)cc2)c1
-4.32% [at 11.4 µM] (inactive)

Quick one: give measured activity, negative = inhibition for Cc1cnc(CNc2ccnc(-c3ccoc3)n2)cn1
12.6% [at 2.29 µM] (inactive)

Quick one: give measured activity, negative = inhibition for O=S(=O)(O)c1ccc2c(N=Nc3cccc4ccccc34)c(O)c(S(=O)(=O)O)cc2c1
-3.82% [at 11.4 µM] (inactive)

Quick one: give measured activity, negative = inhibition for C#CCCCO/N=C1/[C@H]2O[C@@H]2[C@@H](O)[C@H]2[C@H]1CCn1c(=O)n([C@@H](CC)c3ccccc3)c(=O)n12
4.97% [at 11.4 µM] (inactive)

Quick one: give measured activity, negative = inhibition for C[C@H]1CN(CCO)CCN1c1ccccc1
-1.76% [at 11.4 µM] (inactive)

Quick one: give measured activity, negative = inhibition for Cc1ccc(-c2nc(-c3nccc4ccccc34)oc2-c2ccccc2)cc1
-0.601% [at 11.4 µM] (inactive)

Quick one: give measured activity, negative = inhibition for O=C(N/N=C1/C[C@@H](O)[C@@H](O)[C@@H]2[C@H]3C(=O)N(c4ccc(F)cc4F)C(=O)[C@@H]3CC[C@H]12)OCc1ccccc1
-11.6% [at 11.4 µM] (inactive)
